Examples of binders with documented off-rate ratio to that of mAb747c follow.
- TARGET SYSTEM: T1, recombinant human LAG-3-his protein (Novoprotein) (human, UniProt P18627 23-450)
- T1 construct: Bought; also called huLAG-3; not shown: His tag
- T1 sequence (looked up): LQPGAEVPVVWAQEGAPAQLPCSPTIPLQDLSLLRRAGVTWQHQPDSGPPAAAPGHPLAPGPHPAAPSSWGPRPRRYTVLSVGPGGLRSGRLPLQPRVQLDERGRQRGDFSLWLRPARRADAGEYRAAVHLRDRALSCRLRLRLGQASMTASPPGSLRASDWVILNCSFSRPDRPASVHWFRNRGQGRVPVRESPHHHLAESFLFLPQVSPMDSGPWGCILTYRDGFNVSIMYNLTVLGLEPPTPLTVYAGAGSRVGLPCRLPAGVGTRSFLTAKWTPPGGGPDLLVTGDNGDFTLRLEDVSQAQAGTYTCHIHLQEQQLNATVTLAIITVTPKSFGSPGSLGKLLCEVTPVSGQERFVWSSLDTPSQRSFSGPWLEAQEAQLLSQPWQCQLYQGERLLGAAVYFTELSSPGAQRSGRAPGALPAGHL
- RUN DESCRIPTION: BLI Octet, Ab on AHC sensor, huLAG-3-his; test group 1
Your answer should be a plain number; it is taken to be in %.

- BINDER: "mAb747c (antibody, V domains shown, also called mAb717c) VH: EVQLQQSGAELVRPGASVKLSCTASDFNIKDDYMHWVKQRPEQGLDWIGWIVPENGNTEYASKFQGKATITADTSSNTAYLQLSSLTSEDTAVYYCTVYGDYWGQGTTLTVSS VL: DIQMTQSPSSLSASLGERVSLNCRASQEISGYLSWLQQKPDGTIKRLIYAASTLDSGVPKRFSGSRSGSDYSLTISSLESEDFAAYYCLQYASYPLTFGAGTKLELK"
  SCALE UNIT: "%"
  off-rate ratio to that of mAb747c: 100
- BINDER: "HumAb747V-65 (antibody, human IgG1, V domains shown, engineered HumAb747-60 variant; human IgG1/kappa constant domains) VH: EVQLVQSGAEVKKPGATVKLSCTASGFNIKDDYMHWVKQRPEQGLDWIGWIVPRNGNTMYASKFQGKATITADTSTNTAYLELSSLRSEDTAVYYCTVYGDYWGQGTTVTVSS VL: DIQMTQSPSSLSASVGDRVTITCRASQEISGYLSWLQQKPGGAIKRLIYAASTLDSGVPSRFSGSRSGSDYTLTISSLQPEDFADYYCLQYASYPLTFGQGTKLELK"
  SCALE UNIT: "%"
  off-rate ratio to that of mAb747c: 47

May I ask what off-rate ratio to that of mAb747c has been recorded for HumAb747V-61 (antibody, human IgG1, V domains shown, human IgG1/kappa constant domains) VH: EVQLVQSGAEVKKPGATVKLSCTASDFNIKDDYMHWVKQRPEQGLDWIGWIVPENANTEYASKFQGKATITADTSTNTAYLELSSLRSEDTAVYYCTVYGDYWGQGTTVTVSS VL: DIQMTQSPSSLSASVGDRVTITCRASQEISGYLSWLQQKPGGAIKRLIYAASTLDSGVPSRFSGSRSGSDYTLTISSLQPEDFADYYCLQYASYPLTFGQGTKLELK ? 112

Same thing, different binder: HumAb747V-63 (antibody, human IgG1, V domains shown, engineered HumAb747-60 variant; human IgG1/kappa constant domains) VH: EVQLVQSGAEVKKPGATVKLSCTASGFNIKDDYMHWVKQRPEQGLDWIGWIVPRNGNTMYASKFQGKATITADTSTNTAYLELSSLRSEDTAVYYCTVYGDYWGQGTTVTVSS VL: DIQMTQSPSSLSASVGDRVTITCRASQEISGYLSWLQQKPGGAIKRLIYAASALDSGVPSRFSGSRSGSDYTLTISSLQPEDFADYYCLQYASYPLTFGQGTKLELK 85
